Values from patent US8846698B2

Tested System: UniProt P04629
Assay Text: Cell based DiscoveRx PathHunter antagonist assay, TRKA cell line
Measurement Setup: read-out: TrkA cell potency
Sequence (P04629 33-796): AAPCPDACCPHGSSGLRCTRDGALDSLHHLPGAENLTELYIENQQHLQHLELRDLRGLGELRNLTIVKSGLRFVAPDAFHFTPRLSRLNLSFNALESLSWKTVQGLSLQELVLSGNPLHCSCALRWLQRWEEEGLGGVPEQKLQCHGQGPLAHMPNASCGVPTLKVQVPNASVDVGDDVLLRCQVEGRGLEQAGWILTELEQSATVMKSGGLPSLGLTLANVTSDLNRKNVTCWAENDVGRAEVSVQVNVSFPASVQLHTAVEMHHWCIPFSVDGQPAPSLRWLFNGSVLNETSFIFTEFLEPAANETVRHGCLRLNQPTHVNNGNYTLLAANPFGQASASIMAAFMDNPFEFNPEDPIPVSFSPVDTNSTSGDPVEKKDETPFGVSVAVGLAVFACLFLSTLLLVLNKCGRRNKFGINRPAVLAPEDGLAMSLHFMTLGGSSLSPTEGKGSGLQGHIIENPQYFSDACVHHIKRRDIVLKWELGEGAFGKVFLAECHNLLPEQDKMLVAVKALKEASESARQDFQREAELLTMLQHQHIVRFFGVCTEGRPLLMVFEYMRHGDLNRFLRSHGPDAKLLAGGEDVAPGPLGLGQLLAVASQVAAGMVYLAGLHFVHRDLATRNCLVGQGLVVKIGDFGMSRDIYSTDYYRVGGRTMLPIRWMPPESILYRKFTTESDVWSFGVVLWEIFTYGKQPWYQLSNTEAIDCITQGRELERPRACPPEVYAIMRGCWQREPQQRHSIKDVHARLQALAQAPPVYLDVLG
Experimental Endpoint: IC50 (nM)

>>> val("C[C@@H](CO)n1cc(C(=O)c2cncc(NC(=O)Cc3ccc(Cl)cn3)c2)c2cncnc21")
41
>>> val("CC(C)(CO)n1cc(C(=O)c2cncc(NC(=O)Cc3ccc(Cl)cc3)c2)c2cncnc21")
2.7
>>> val("CC(CO)n1cc(C(=O)c2cncc(NC(=O)Cc3ccc(F)cn3)c2)c2cnc(N)nc21 (single isomer, unassigned) [Example 40]")
2580
>>> val("CC(CO)n1cc(C(=O)c2cncc(NC(=O)Cc3ccc(Cl)cc3)c2)c2cnc(N)nc21 (single isomer, unassigned) [Example 42]")
44

P = CC(C)(C)n1cc(C(=O)c2cncc(NC(=O)Cn3cc(C(F)(F)F)cn3)c2)c2cncnc21
Q = CC(C)(C)n1cc(C(=O)c2cncc(NC(=O)Cn3ccc(C4CC4)n3)c2)c2cncnc21
Exercise: Lower value of IC50 belongs to which: P or Q ? Answer by quoting the chosen item's label.
Solution: P

====

Tested System: TRKA (Homo sapiens (Human), UniProt P04629)
Assay Text: Isolated TRK enzyme assay (HTRF KinEASE-TK), TRKA
Type: biochemical
Measurement Setup: read-out: Trka enzyme (IC50)
Sequence (P04629 441-796): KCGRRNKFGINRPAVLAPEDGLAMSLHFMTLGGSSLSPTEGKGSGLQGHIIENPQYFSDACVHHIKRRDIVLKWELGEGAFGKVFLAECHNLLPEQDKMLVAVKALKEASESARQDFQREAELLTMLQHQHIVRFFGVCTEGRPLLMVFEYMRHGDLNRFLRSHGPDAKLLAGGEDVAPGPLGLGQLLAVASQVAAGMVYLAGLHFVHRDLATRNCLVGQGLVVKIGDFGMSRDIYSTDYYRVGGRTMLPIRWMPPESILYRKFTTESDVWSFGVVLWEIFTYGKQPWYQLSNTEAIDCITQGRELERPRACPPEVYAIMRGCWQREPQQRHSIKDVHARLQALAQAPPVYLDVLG
pIC50: −log10 of the molar value.
Experimental Endpoint: pIC50

// solved cases for pIC50 follow
>>> val("CC(C)(CO)n1cc(C(=O)c2cncc(NC(=O)Cc3ccc(C(F)(F)F)cn3)c2)c2cnc(N)nc21 [Example 562]")
8.43
>>> val("CC(C)n1cc(C(=O)c2cncc(NC(=O)Cn3ncc4cccnc43)c2)c2cncnc21 [Example 102]")
7.37
>>> val("CC(C)n1cc(C(=O)c2cncc(NC(=O)Cc3ccccc3OC3CC3)c2)c2cncnc21 [Example 70]")
7.64
>>> val("CC(C)n1cc(C(=O)c2cncc(NC(=O)c3c[nH]nc3C3CCC3)c2)c2cncnc21 [Example 389]")
7.07
>>> val("Cc1ccccc1CCC(=O)Nc1cncc(C(=O)c2cn(C)c3ncncc23)c1 [Example 326]")
5.53
>>> val("Cc1c(-c2ccccc2)cnn1CC(=O)Nc1cncc(C(=O)c2cn(C(C)C)c3ncncc23)c1 [Example 149]")
5.45
>>> val("Cc1cc2ncn(CC(=O)Nc3cncc(C(=O)c4cn(C(C)C)c5ncncc45)c3)c2cc1C [Example 160]")
5.97
>>> val("Cc1cccc2cc(C(=O)Nc3cncc(C(=O)c4cn(C(C)C)c5ncncc45)c3)nn12 [Example 476]")
7.19

a = CCc1nc2cccnc2n1CC(=O)Nc1cncc(C(=O)c2cn(C(C)C)c3ncncc23)c1 [Example 138]
b = CC(C)n1cc(C(=O)c2cncc(NC(=O)c3ccccn3)c2)c2cncnc21 [Example 429]
Exercise: Lower value of pIC50 belongs to which: a or b ? Answer by quoting the chosen item's label.
Solution: a

P = CC(C)n1cc(C(=O)c2cncc(NC(=O)Cn3cnc(-c4ccc(F)cc4)c3)c2)c2cncnc21 [Example 365]
Q = COc1cc(CC(=O)Nc2cncc(C(=O)c3cn(C(C)C)c4ncncc34)c2)ccc1C#N [Example 77]
R = CC(C)(C)n1cc(C(=O)c2cncc(NC(=O)Cc3ccc(C#N)cn3)c2)c2cnc(N)nc21 [Example 530]
S = CC(C)n1cc(C(=O)c2cncc(NC(=O)c3cn4nc(Cl)ccc4n3)c2)c2cncnc21 [Example 515]
T = CC(C)n1cc(C(=O)c2cncc(NC(=O)Cn3nnc4cc(Cl)ccc43)c2)c2cncnc21 [Example 119]
Exercise: Put these in order: smallest pIC50 first, largest last. The response must list the labels following the requested ordering.
Solution: P, S, T, Q, R
(P: 5.69, S: 5.94, T: 6.63, Q: 7.19, R: 8.23)
